tested_target: Epidermal growth factor receptor (Homo sapiens) (UniProt P00533)
Sequence (P00533 whole entry, looked up): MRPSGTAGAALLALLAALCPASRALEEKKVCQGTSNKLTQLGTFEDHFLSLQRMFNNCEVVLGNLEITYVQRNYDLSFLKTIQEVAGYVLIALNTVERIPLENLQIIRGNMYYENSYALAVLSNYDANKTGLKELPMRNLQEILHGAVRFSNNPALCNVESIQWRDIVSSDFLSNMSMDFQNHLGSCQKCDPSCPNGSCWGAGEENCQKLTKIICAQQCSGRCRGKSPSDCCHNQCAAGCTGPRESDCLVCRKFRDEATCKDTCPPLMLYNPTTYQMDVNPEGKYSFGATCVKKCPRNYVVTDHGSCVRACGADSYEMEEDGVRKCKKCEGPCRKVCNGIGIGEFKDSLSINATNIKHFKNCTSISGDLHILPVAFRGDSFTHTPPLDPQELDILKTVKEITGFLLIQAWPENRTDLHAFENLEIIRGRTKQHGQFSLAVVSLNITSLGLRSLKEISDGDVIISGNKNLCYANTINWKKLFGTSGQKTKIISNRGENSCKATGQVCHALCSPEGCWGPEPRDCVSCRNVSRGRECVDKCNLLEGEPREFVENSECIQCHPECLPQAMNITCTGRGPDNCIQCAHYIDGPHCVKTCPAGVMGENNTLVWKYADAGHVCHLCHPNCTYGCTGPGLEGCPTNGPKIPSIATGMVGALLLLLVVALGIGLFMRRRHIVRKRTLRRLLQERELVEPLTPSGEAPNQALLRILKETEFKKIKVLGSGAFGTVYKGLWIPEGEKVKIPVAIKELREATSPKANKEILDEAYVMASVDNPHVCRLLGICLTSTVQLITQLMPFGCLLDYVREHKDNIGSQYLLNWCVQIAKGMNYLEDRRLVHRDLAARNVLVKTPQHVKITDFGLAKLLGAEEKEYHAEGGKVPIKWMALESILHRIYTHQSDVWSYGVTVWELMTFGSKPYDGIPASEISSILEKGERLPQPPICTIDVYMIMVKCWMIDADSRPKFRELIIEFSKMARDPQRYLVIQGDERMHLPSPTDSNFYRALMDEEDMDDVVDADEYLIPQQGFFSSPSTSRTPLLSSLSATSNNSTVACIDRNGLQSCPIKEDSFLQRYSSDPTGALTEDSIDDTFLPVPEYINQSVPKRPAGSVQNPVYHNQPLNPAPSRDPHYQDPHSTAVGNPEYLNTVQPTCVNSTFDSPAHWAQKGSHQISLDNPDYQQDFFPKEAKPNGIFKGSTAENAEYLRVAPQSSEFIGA
test: EGFR binders on small-molecule microarrays, primary screen, biochemical, small-molecule microarray, 635 nm fluorescence (AID 1104);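 further: score merges 667 nm emission intensity with spot signal to noise over triplicate slides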
experimental_conditions: EGFR binding, higher = more signal
Respond with rule met for composite z-score values of -0.4 and above, rule not met for values below.

Take a look at these entries with their results.
molecule	assigned_class
C=CCC(OC(C)=O)[C@@H]1[C@@H](N(Cc2ccc(-c3cccc(C(F)(F)F)c3)o2)C(=O)Cc2ccc(OC)cc2)c2cc(OCCCO)ccc2N1C(=O)c1ccc2ccccc2n1 (some centres not stated)	rule not met
COc1ccc([Si](C)(C)[C@H]2[C@H](CCn3cc([C@H](O)c4ccccc4)nn3)O[C@@]3(C(=O)N(C)c4c(Br)cc(C)cc43)[C@@H]2C)cc1	rule not met
CCCCC(O)C1C=CC2C(=O)NC(=O)C2N1Nc1ccc(Cl)cc1Cl (configuration not stated)	rule not met
C=CCOC(=O)[C@H]1[C@@H]2C(=O)O[C@@H](c3ccccc3)[C@@H](c3ccccc3)N2[C@@H](c2ccc(OCCOC(=O)[C@@H]3C[C@@H]4C(=O)N[C@@H](CC(C)C)C(=O)N4[C@@H]3c3ccc(O)cc3)cc2)[C@]12C(=O)Nc1ccc(I)cc12	rule met
O=C1C2C=CC(C(O)c3cccc(O)c3)N(Nc3ccccc3F)C2C(=O)N1c1ccccc1 (configuration not stated)	rule met
CC(=O)n1cc(C(O)C2C=CC3C(=O)N(c4ccccc4)C(=O)C3N2Nc2ccccc2F)c2ccccc21 (configuration not stated)	rule not met

Then there is this molecule:
Decide: is the reported value of composite z-score for C=C(COC)/C(=C/C[C@H](OC(=O)c1ccncc1)c1cccc(OCCO)c1)c1cnc2ccccc2c1 equal to or greater than -0.4? rule met
